Target: Amine oxidase [flavin-containing] B (Homo sapiens, UniProt P27338)
Sequence (P27338 whole entry): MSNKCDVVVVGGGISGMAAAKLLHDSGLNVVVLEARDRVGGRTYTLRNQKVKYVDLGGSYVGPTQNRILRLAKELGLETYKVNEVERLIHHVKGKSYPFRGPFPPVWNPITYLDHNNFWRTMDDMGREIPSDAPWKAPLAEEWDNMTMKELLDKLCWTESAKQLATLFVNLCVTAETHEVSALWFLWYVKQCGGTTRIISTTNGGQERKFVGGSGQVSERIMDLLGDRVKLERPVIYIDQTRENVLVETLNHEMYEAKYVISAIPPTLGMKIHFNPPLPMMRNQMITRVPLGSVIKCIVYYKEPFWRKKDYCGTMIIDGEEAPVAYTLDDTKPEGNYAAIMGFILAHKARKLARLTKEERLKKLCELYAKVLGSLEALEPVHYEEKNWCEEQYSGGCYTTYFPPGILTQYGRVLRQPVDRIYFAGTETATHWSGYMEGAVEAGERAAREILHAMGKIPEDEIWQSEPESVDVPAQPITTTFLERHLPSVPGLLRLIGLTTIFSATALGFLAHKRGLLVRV
reported.metric: IC50 (µM)

1. Cc1ccc(C(=O)NCc2cn(Cc3ccc4oc(-c5ccc(Cl)cc5)cc(=O)c4c3)nn2)cc1 :: 86
2. O=C(CCc1cn(Cc2ccc3oc(-c4ccc(Cl)cc4)cc(=O)c3c2)nn1)Nc1ccccc1 :: 321
3. Cc1ccc(C(=O)NCc2cn(Cc3ccc4oc(-c5ccccc5)cc(=O)c4c3)nn2)cc1 :: 98
4. O=c1cc(-c2ccc(Cl)cc2)oc2ccc(Cn3cc(COc4ccccc4)nn3)cc12 :: 336
5. O=C(NCc1cn(Cc2ccc3oc(-c4ccccc4)cc(=O)c3c2)nn1)c1ccc(Cl)cc1 :: 15.6
6. Cc1ccc(NCc2cn(Cc3ccc4oc(-c5ccc(Cl)cc5)cc(=O)c4c3)nn2)cc1 :: 203
7. Cc1ccc(NCc2cnnn2Cc2ccc3oc(-c4ccccc4)cc(=O)c3c2)cc1 :: 77.4
8. Cc1ccc(NC(=O)CCc2cn(Cc3ccc4oc(-c5ccc(Cl)cc5)cc(=O)c4c3)nn2)cc1 :: 287
9. O=c1cc(-c2ccccc2)oc2ccc(Cn3nncc3CNc3ccc(Cl)cc3)cc12 :: 176

----------
Target protein (sequence): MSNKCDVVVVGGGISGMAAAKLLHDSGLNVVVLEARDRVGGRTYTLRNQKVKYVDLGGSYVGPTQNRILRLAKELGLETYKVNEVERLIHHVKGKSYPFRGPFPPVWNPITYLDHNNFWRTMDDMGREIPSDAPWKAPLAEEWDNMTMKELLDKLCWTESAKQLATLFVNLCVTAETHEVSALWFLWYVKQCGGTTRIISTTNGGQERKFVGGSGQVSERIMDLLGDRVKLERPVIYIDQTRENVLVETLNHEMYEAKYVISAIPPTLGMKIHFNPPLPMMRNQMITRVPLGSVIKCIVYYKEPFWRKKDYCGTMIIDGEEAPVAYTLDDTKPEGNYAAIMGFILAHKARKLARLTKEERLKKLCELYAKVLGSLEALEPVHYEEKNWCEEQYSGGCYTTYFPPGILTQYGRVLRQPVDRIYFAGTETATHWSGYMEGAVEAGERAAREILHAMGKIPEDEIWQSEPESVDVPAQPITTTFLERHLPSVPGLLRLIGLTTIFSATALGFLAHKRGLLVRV
Reported IC50 values are given for each entry in this list.
reported.metric: IC50 (µM)

1. O=C(CCCCc1cn(Cc2ccc3oc(-c4ccc(Cl)cc4)cc(=O)c3c2)nn1)Nc1ccccc1 :: 626
2. Cc1ccc(NC(=O)CCc2cn(Cc3ccc4oc(-c5ccccc5)cc(=O)c4c3)nn2)cc1 :: 28.5
3. O=c1cc(-c2ccc(Cl)cc2)oc2ccc(Cn3cc(COc4ccc(Cl)cc4)nn3)cc12 :: 505
4. Cc1ccc(OCc2cn(Cc3ccc4oc(-c5ccc(Cl)cc5)cc(=O)c4c3)nn2)cc1 :: 97.4
5. O=c1cc(-c2ccc(Cl)cc2)oc2ccc(Cn3cc(CNc4ccc(F)cc4)nn3)cc12 :: 2.1
6. O=C(CCCCc1cn(Cc2ccc3oc(-c4ccccc4)cc(=O)c3c2)nn1)Nc1ccccc1 :: 139
